Tested on: COLO 205 colon
Assay: NCI-60 one-dose screen, 48 h
Conditions: 10 µM unless noted
Compounds without any hit were thinned out: in the full panel of roughly 83,000, 20% have a hit. The source made the active and inactive calls. Rule for the calls: active = growth percent below 10; inactive = the rest.
Permitted responses: active, inactive

A selection of reference data follows.
[[record]]
compound = "N#CC1=C(c2ccc(Cl)cc2)Nc2c(c(-c3ccc(Cl)cc3)nn2-c2ccccc2)C12C(=O)Nc1ccc(Cl)cc12 (stereo not drawn)"
group = "inactive"

[[record]]
compound = "CC1(C)CC[C@]2(c3nnc(-c4ccncc4)o3)CC[C@H]3C(=CC[C@H]4[C@@]3(C)CC[C@H]3C(C)(C)C(=O)CC[C@]43C)[C@@H]2C1"
group = "inactive"

[[record]]
compound = "O=C(c1ccc(Cl)cc1)N1CCN(c2ccnc3cc(Cl)ccc23)CC1"
group = "inactive"


Would you mind telling me which call this test gave O=C1/C(=C/c2ccc(F)cc2)COc2ccc(O)c(O)c21 ? inactive

Would you mind telling me which call this test gave C#Cc1cccc(Nc2ncnc3ccc(-c4cnc(N)nc4)cc23)c1 ? inactive

Would you mind telling me which call this test gave Cc1ccc2c(n1)C(=O)c1[nH]c3ccccc3c1C2=O ? inactive

###

System: SR leukemia
Test: NCI-60 one-dose screen, 48 h
Details: 10 µM unless noted
Experimental: Growth inhibition of the SR human tumor cell line is measured as a screen for anti-cancer activity. Cells are grown in 96 well plates and exposed to the test compound for 48 hours. Compounds are tested at a single concentration, which is 10^-5 M for most compounds. The reported endpoint is percent growth (GI% or GIPRCNT), where numbers from 0 - 100% represent growth inhibition, and numbers from -100% - 0 represent cell death. For example, a value of 40 represents 60% growth inhibition. […]
This is part of a sample that, as a whole, favours compounds with a hit. Of some 83,000 tested, about 20% had one in any assay. Active and inactive are the calls of the source. Rule for the calls: active = growth percent below 10; inactive = the rest.
Permitted responses: 1 = active, -1 = inactive

A selection of reference data follows.
[[record]]
compound = "C#CCOc1ccc2ncnc(Nc3cccc(NC(=O)C=C)c3)c2c1"
group = -1

[[record]]
compound = "CCCCC[C@@H]1Cc2cc(O)c(C(=O)O)c3c2[C@H](C[C@]2(OC[C@@H](CC(=O)[C@@](C)(CC)C(=O)OC)[C@@H]2C)O3)O1"
group = -1

[[record]]
compound = "C=C1C(=O)O[C@H]2[C@H]1CC/C(COC(=O)N[C@H]1C[C@H](O[C@H]3C[C@](O)(C(=O)CO)Cc4c(O)c5c(c(O)c43)C(=O)c3c(OC)cccc3C5=O)O[C@@H](C)[C@H]1O)=C\\CC[C@@]1(C)O[C@@H]21"
group = 1

[[record]]
compound = "O=C1Nc2ccc(I)cc2C1=O"
group = -1

[[record]]
compound = "Cc1ccc(-c2nc(N3CCNCC3)c3oc(-c4ccccc4)nc3n2)cc1"
group = 1


Would you mind telling me which call this test gave c1cnc2[nH]cc(-c3csc(-c4cn(CCCN5CCOCC5)c5ccccc45)n3)c2c1 ? 1

Would you mind telling me which call this test gave COc1cc(-c2nc3cc(Cl)c(Cl)cc3[nH]2)ccc1OCC(=O)N=Nc1c(O)[nH]c2ccc([N+](=O)[O-])cc12 ? -1

Would you mind telling me which call this test gave CCOC(=O)c1c(C)c2c(n1C)CSc1cc(C(=O)c3ccccc3)c(=O)[nH]c1-2 ? -1

Would you mind telling me which call this test gave CCOC(=O)CNP(=O)(OC[C@@H](Cc1ccccc1)NC(=O)c1cc2ccccc2s1)Oc1ccccc1 (some centres undefined) ? -1

Would you mind telling me which call this test gave O=C(CN1C(=O)CCC1=O)Nc1ncc(Cc2ccc(F)cc2)s1 ? -1

Would you mind telling me which call this test gave CC1=NN(c2nc(SCC(=O)Nc3nc4ccc(C)cc4s3)nc(-c3ccccc3)c2C#N)C(=O)C1 ? -1

###

Test system: HCC-2998 colon
Assay: NCI-60 one-dose screen, 48 h (100 = growth as untreated, 0 = no growth, -100 = all killed)
Conditions: 10 µM unless noted
Compounds without any hit were thinned out: in the full panel of roughly 83,000, 20% have a hit.
Assign true (1) to entries whose growth meets or exceeds 50%; assign false (0) to the rest.

[[record]]
compound = "O=C(CCC(=O)N/N=C/c1ccccc1O)N/N=C/c1ccccc1O"
group = "false (0)"

[[record]]
compound = "Cc1ccc2c3c(c(=O)[nH]c2c1)C1(C(C#N)=C(N)O3)c2cc(Br)ccc2-c2ccc(Br)cc21"
group = "false (0)"

[[record]]
compound = "O=C1Nc2ccc(I)cc2C1=O"
group = "true (1)"

[[record]]
compound = "CSc1nnc(-c2cnn3c2NC(c2ccccc2)C3)n1-c1ccc(C(F)(F)F)cc1 (configuration not stated)"
group = "true (1)"

[[record]]
compound = "Cc1ccc(NC(=S)NNC(=S)NNc2ccccc2)cc1C"
group = "true (1)"

[[record]]
compound = "CCOC(=O)c1cc(C(=O)c2cc(OC)c(OC)c(OC)c2)n2ccc(-c3ccncc3)cc12"
group = "true (1)"

[[record]]
compound = "O=C1N(Cc2ccccc2Cl)c2ccccc2C12NN=C(c1cccc(Cl)c1)S2 (configuration not stated)"
group = "false (0)"

[[record]]
compound = "CC(=O)OC[C@]12CCC(C)(C)C[C@H]1[C@@]1(O)[C@H](O)C[C@@H]3[C@@]4(C)CCCNC(C)(C)[C@@H]4CC[C@@]3(C)[C@]1(C)CC2"
group = "true (1)"


# input for lookup
Threshold query (growth >= 50%) on Cc1cc(=O)[nH]c2c(C#N)cnn12 true (1)

###

System: UACC-257 melanoma
Test: NCI-60 one-dose screen, 48 h
Conditions: 10 µM unless noted
Compounds without any hit were thinned out: in the full panel of roughly 83,000, 20% have a hit. The source made the active and inactive calls. The calls were made as follows: active = growth percent below 10; inactive = the rest.
Permitted responses: active, inactive

A selection of reference data follows.
[[record]]
molecule = "CN(C)CC(=O)Nc1ccc2ncnc(Nc3ccc(Oc4cccc(C(F)(F)F)c4)c(Cl)c3)c2c1"
group = "inactive"

[[record]]
molecule = "Oc1c(Cl)cc(Cl)c2ccc(Cn3cc(-c4cc(F)cc(F)c4)nn3)nc12"
group = "inactive"

[[record]]
molecule = "c1ccc(C2=NN[C@H](c3cn(-c4ccccc4)nc3-c3ccccc3)C2)cc1"
group = "inactive"

[[record]]
molecule = "CC(C)N1CCN(Cc2ccc3c(NNC(=O)c4ccccc4)nc4cc(F)ccc4n23)CC1"
group = "inactive"

[[record]]
molecule = "CCNc1cc(-c2cccc(OC(F)(F)F)c2)nc2ccc(N3CCCC3)cc12"
group = "inactive"

[[record]]
molecule = "N#Cc1c(-c2cccs2)cc(-c2cccnc2)[nH]c1=O"
group = "inactive"

[[record]]
molecule = "N#Cc1c(-c2ccccc2)cc(-c2ccccc2)n(CCCCCC(=O)Nc2ccccc2N)c1=O"
group = "inactive"

[[record]]
molecule = "Cc1nc2sc(C(=O)Nc3ccccc3)c(N)c2cc1C(=O)c1ccccc1"
group = "inactive"

[[record]]
molecule = "C=CC(=O)NCc1ccc(Nc2nccc(-c3ccc(N4CCCC4)c(C#N)c3)n2)cc1"
group = "inactive"

[[record]]
molecule = "O=c1oc2ccccc2cc1C1=NN=C(SCc2ccccc2)SC1"
group = "inactive"


# input for lookup
Would you mind telling me which call this test gave O=C1/C(=C/c2ccc(Cl)c(Cl)c2)CN(C(=O)C(Cl)Cl)C/C1=C\c1ccc(Cl)c(Cl)c1 ? active

###

System: HCT-116 colon
Experiment: NCI-60 one-dose screen, 48 h
Conditions: 10 µM unless noted
The panel holds about 83,000 compounds, 20% with a hit somewhere; the sample as a whole holds those more often. Calls of active or inactive are those of the source. How the source made its calls: active means growth percent below 10; inactive means the rest.
Permitted responses: active, inactive

[[record]]
compound = "CC(C)(C)n1cc(-c2ccnc(NCCNS(=O)(=O)c3cccc(F)c3)c2)c(-c2ccccc2)n1"
group = "inactive"

[[record]]
compound = "Cc1ccccc1Cn1cnc2ccc(-c3cc(NC(=O)c4ccc(NC5CCN(C)CC5)cc4)n[nH]3)cc21"
group = "inactive"

[[record]]
compound = "CC(=O)c1cc(O)c2ccccc2c1O"
group = "inactive"

[[record]]
compound = "CCOC(=O)CNP(=O)(OC[C@@H](Cc1ccccc1)NC(=O)c1cc2ccccc2s1)Oc1ccccc1 (some centres undefined)"
group = "inactive"

[[record]]
compound = "CN(C)c1ccc(Nc2cc(-c3cccc(OC(F)(F)F)c3)nc3ccc(N4CCCC4)cc23)cc1"
group = "active"


Would you mind telling me which call this test gave CC(C)(C)[Si](C)(C)O[C@H]1C(=O)C=CN2CC=C[C@@H]12 ? inactive

Would you mind telling me which call this test gave COc1ccc(/C=C2\C(=O)N=C3N2NC(c2cc(Br)ccc2O)C=C(C)N3c2ccccc2)cc1 (centres undefined) ? inactive

Would you mind telling me which call this test gave Cc1nn(-c2ccccc2)c(Oc2ccccn2)c1-c1nc2ccccc2s1 ? inactive

Would you mind telling me which call this test gave CN1CCN(c2ccc(C(=O)Nc3cccc(C#Cc4cccc5[nH]nc(N)c45)c3)cc2C(F)(F)F)CC1 ? active
